# target-or-system: ClpC1-NTD substrate, M. tuberculosis ClpC1P1P2 (Mycobacterium tuberculosis, UniProt P9WPC9)
# assay-method-text: biochemical
# Format: biochemical
# measurement-context: Mtb; mean of the measurements; read-out: DC50, Mean
property-label: DC50 (µM)

1. COC(c1ccccc1)C1NC(=O)C(C)NC(=O)C(CC(C)CO)N(C)C(=O)C(Cc2cn(Cc3cn(CCOCCOCCOCCOCCn4cc(Cn5cc(CC6NC(=O)C(C(C)C)NC(=O)C(CC(C)C)N(C)C(=O)C(C(C)C)NC(=O)C(C(OC)c7ccccc7)NC(=O)C(C)NC(=O)C(CC(C)CO)N(C)C6=O)c6ccccc65)nn4)nn3)c3ccccc23)NC(=O)C(C(C)C)NC(=O)C(CC(C)C)N(C)C(=O)C(C(C)C)NC1=O (stereo not shown) [Compound 8]	8.3

###

# assay-method-text: in vivo
# Assay type: in vivo, BALB/cAnNCrl mice
# measurement-context: male, BALB/cAnNCrl, mouse, in vivo, iv, 1.062 umol/kg, iv bolus, mice, Mean; read-out: MRT
*1 amine or outer side, *2 acyl side, *3 side chain or, on linkers, in order; H or OH if unused. Where a SMILES comes first, the peptide text is derived from it. [ ]: non-standard residue; d: D form. X1 = C#CCn1cc(C[C@H](N[*:1])C(=O)[*:2])c2ccccc21; NMeLeu(5-OH,4R) = CN[C@@H](C[C@@H](C)CO)C(=O)O; Phe(βR-OMe) = CO[C@H](c1ccccc1)[C@H](N)C(=O)O; NMeL = CN[C@@H](CC(C)C)C(=O)O
property-label: MRT (min)

1. C#CCn1cc(C[C@@H]2NC(=O)[C@H](C(C)C)NC(=O)[C@H](CC(C)C)N(C)C(=O)[C@H](C(C)C)NC(=O)[C@H]([C@H](OC)c3ccccc3)NC(=O)[C@H](C)NC(=O)[C@H](C[C@@H](C)CO)N(C)C2=O)c2ccccc21 [Compound 5] (cyclo(A[Phe(βR-OMe)]V[NMeL]V[X1][NMeLeu(5-OH,4R)]))	48

###

# assay-method-text: Hepatocyte stability, mice
# Type: in vitro ADME
# measurement-context: Mouse
*1 amine or outer side, *2 acyl side, *3 side chain or, on linkers, in order; H or OH if unused. Where a SMILES comes first, the peptide text is derived from it. [ ]: non-standard residue; d: D form. X5 = C=CCn1cc(C[C@@H](C(=O)[*:2])N(C)[*:1])c2ccccc21; NMeLeu(5-OH,4R) = CN[C@@H](C[C@@H](C)CO)C(=O)O; Phe(βR-OMe) = CO[C@H](c1ccccc1)[C@H](N)C(=O)O; NMeL = CN[C@@H](CC(C)C)C(=O)O
property-label: Hepatocyte Stability Mouse QH (%)

1. COC(c1ccccc1)C1NC(=O)C(C)NC(=O)C(CC(C)CO)N(C)C(=O)C(Cc2cn(Cc3cn(CCOCCOCCOCCOCCn4cc(Cn5cc(CC6NC(=O)C(C(C)C)NC(=O)C(CC(C)C)N(C)C(=O)C(C(C)C)NC(=O)C(C(OC)c7ccccc7)NC(=O)C(C)NC(=O)C(CC(C)CO)N(C)C6=O)c6ccccc65)nn4)nn3)c3ccccc23)NC(=O)C(C(C)C)NC(=O)C(CC(C)C)N(C)C(=O)C(C(C)C)NC1=O (centres unmarked) [Compound 8]	50.268
2. C=CCn1cc(C[C@H]2C(=O)N(C)[C@@H](C[C@@H](C)CO)C(=O)N[C@@H](C)C(=O)N[C@@H]([C@H](OC)c3ccccc3)C(=O)N[C@@H](C(C)C)C(=O)N(C)[C@@H](CC(C)C)C(=O)N[C@@H](C(C)C)C(=O)N2C)c2ccccc21 [SI-60] (cyclo(A[Phe(βR-OMe)]V[NMeL]V[X5][NMeLeu(5-OH,4R)]))	61.367

###

# System: Mycobacterium avium
# assay-method-text: microbe, parasite or virus in culture
# Type: cell-based
# measurement-context: Experiment 2; three replicate columns; read-out: MIC (µM) Mycobacterium avium
*1 amine or outer side, *2 acyl side, *3 side chain or, on linkers, in order; H or OH if unused. Where a SMILES comes first, the peptide text is derived from it. [ ]: non-standard residue; d: D form. X1 = C#CCn1cc(C[C@H](N[*:1])C(=O)[*:2])c2ccccc21; NMeLeu(5-OH,4R) = CN[C@@H](C[C@@H](C)CO)C(=O)O; Phe(βR-OMe) = CO[C@H](c1ccccc1)[C@H](N)C(=O)O; NMeL = CN[C@@H](CC(C)C)C(=O)O
property-label: MIC

1) C#CCn1cc(C[C@@H]2NC(=O)[C@H](C(C)C)NC(=O)[C@H](CC(C)C)N(C)C(=O)[C@H](C(C)C)NC(=O)[C@H]([C@H](OC)c3ccccc3)NC(=O)[C@H](C)NC(=O)[C@H](C[C@@H](C)CO)N(C)C2=O)c2ccccc21 [Compound 5] (cyclo(A[Phe(βR-OMe)]V[NMeL]V[X1][NMeLeu(5-OH,4R)]))	6.25 µM
2) CO[C@H]1/C=C/O[C@@]2(C)Oc3c(C)c(O)c4c(O)c(c(/C=N/N5CCN(C)CC5)c(O)c4c3C2=O)NC(=O)/C(C)=C\C=C\[C@H](C)[C@H](O)[C@@H](C)[C@@H](O)[C@@H](C)[C@H](OC(C)=O)[C@@H]1C [Rifampicin, reference compound]	0.30 µM
3) COC(c1ccccc1)C1NC(=O)C(C)NC(=O)C(CC(C)CO)N(C)C(=O)C(Cc2cn(Cc3cn(CCOCCOCCOCCOCCn4cc(Cn5cc(CC6NC(=O)C(C(C)C)NC(=O)C(CC(C)C)N(C)C(=O)C(C(C)C)NC(=O)C(C(OC)c7ccccc7)NC(=O)C(C)NC(=O)C(CC(C)CO)N(C)C6=O)c6ccccc65)nn4)nn3)c3ccccc23)NC(=O)C(C(C)C)NC(=O)C(CC(C)C)N(C)C(=O)C(C(C)C)NC1=O (stereo not drawn)	>50 µM

###

Measured MIC of individual entries
# System: Mycobacterium avium
# assay-method-text: microbe, parasite or virus in culture
# Assay type: cell-based
# measurement-context: Mycobacterium avium; mean ± SD; read-out: MIC Mycobacterium avium
*1 amine or outer side, *2 acyl side, *3 side chain or, on linkers, in order; H or OH if unused. Where a SMILES comes first, the peptide text is derived from it. [ ]: non-standard residue; d: D form. X1 = C#CCn1cc(C[C@H](N[*:1])C(=O)[*:2])c2ccccc21; NMeLeu(5-OH,4R) = CN[C@@H](C[C@@H](C)CO)C(=O)O; Phe(βR-OMe) = CO[C@H](c1ccccc1)[C@H](N)C(=O)O; Trp(1-Me) = Cn1cc(C[C@H](N)C(=O)O)c2ccccc21; NMeL = CN[C@@H](CC(C)C)C(=O)O; Pra = C#CC[C@H](N)C(=O)O
property-label: MIC (µM)

1. C#CCn1cc(C[C@@H]2NC(=O)[C@H](C(C)C)NC(=O)[C@H](CC(C)C)N(C)C(=O)[C@H](C(C)C)NC(=O)[C@H]([C@H](OC)c3ccccc3)NC(=O)[C@H](C)NC(=O)[C@H](C[C@@H](C)CO)N(C)C2=O)c2ccccc21 [Compound 5] (cyclo(A[Phe(βR-OMe)]V[NMeL]V[X1][NMeLeu(5-OH,4R)]))	6.3
2. COc1c(N2C[C@@H]3CCCN[C@@H]3C2)c(F)cc2c(=O)c(C(=O)O)cn(C3CC3)c12 [Moxifloxacin, reference compound]	2.5
3. NCC[C@H](O)C(=O)N[C@@H]1C[C@H](N)[C@@H](O[C@H]2O[C@H](CN)[C@@H](O)[C@H](O)[C@H]2O)[C@H](O)[C@H]1O[C@H]1O[C@H](CO)[C@@H](O)[C@H](N)[C@H]1O [Amikacin, reference compound]	1.7
4. CO[C@H]1/C=C/O[C@@]2(C)Oc3c(C)c(O)c4c(O)c(c(/C=N/N5CCN(C)CC5)c(O)c4c3C2=O)NC(=O)/C(C)=C\C=C\[C@H](C)[C@H](O)[C@@H](C)[C@@H](O)[C@@H](C)[C@H](OC(C)=O)[C@@H]1C [Rifampicin, reference compound]	0.3
5. C#CC[C@@H]1NC(=O)[C@H](CC(C)C)N(C)C(=O)[C@H](C(C)C)NC(=O)[C@H]([C@H](OC)c2ccccc2)NC(=O)[C@H](C)NC(=O)[C@H](C[C@@H](C)CO)N(C)C(=O)[C@H](Cc2cn(C)c3ccccc23)NC1=O [Compound 10] (cyclo(A[Phe(βR-OMe)]V[NMeL][Pra][Trp(1-Me)][NMeLeu(5-OH,4R)]))	12.5
6. CC[C@H]1OC(=O)[C@H](C)[C@@H](O[C@H]2C[C@@](C)(OC)[C@@H](O)[C@H](C)O2)[C@H](C)[C@@H](O[C@@H]2O[C@H](C)C[C@H](N(C)C)[C@H]2O)[C@](C)(OC)C[C@@H](C)C(=O)[C@H](C)[C@@H](O)[C@]1(C)O [Clarithromycin, reference compound]	0.3
